biological target: human MAT I catalytic subunit alpha (hMAT1A) (Homo sapiens); assay: MAT assay, turnover of S/Se-Met analogs to S(Se)AM analogs (RP-HPLC end point); format: biochemical; conditions: 2 mM Met analog, 1 mM ATP, 5 μM MAT, pH 8, 4 h, 37° C.; average of two assays
ASSAY ENDPOINT: Percentage Turn-over hMAT1A (%)
Numbers only, in %.

Some molecules with known Percentage Turn-over hMAT1A results, for comparison:
1. C#CCCSCC[C@H](N)C(=O)O	0
2. C=C(C)CSCC[C@H](N)C(=O)O	0
3. [N-]=[N+]=NCCCSCC[C@H](N)C(=O)O	0
4. C/C=C/CSCC[C@H](N)C(=O)O	2
5. CC(C)SCC[C@H](N)C(=O)O	2

Please list Percentage Turn-over hMAT1A recorded for the molecule `CCSCC[C@H](N)C(=O)O`
75

====

biological target: human MAT I catalytic subunit alpha (hMAT1A) (Homo sapiens, UniProt Q00266); assay: MAT assay, turnover of S/Se-Met analogs to S(Se)AM analogs (RP-HPLC end point); type: biochemical; details: 2 mM Met analog, 1 mM ATP, 5 μM MAT, pH 8, 4 h, 37° C.; average of two assays
ASSAY ENDPOINT: Percentage Turn-over hMAT1A (%)
Answers are plain numbers, in %.

Some compounds with known Percentage Turn-over hMAT1A results, for comparison:
1) CC(C)=CCSCC[C@H](N)C(=O)O	0
2) CCCSCC[C@H](N)C(=O)O	5
3) CCCCSCC[C@H](N)C(=O)O	0

For every record below, what is its Percentage Turn-over hMAT1A?
1. N#CCSCC[C@H](N)C(=O)O
2. C#CCSCC[C@H](N)C(=O)O
3. C=C/C=C/CSCC[C@H](N)C(=O)O
4. CC(C)CSCC[C@H](N)C(=O)O
5. [N-]=[N+]=NC/C=C/CSCC[C@H](N)C(=O)O
6. CC(C)CCSCC[C@H](N)C(=O)O

2
2
2
0
2
0

For every record below, what is its Percentage Turn-over hMAT1A?
1. [N-]=[N+]=NCCSCC[C@H](N)C(=O)O
2. C=CCSCC[C@H](N)C(=O)O

[4, 5]

====

biological target: Sulfolobus solfataricus MAT (sMAT) (Saccharolobus solfataricus); assay type: biochemical; details: 2 mM analog, 1 mM ATP, 5 μM sMAT, pH 8.0, 4 h at 65° C.; average of two assays
The label is satisfied for Percentage Turn-Over (sMAT) below 30% and not satisfied for Percentage Turn-Over (sMAT) equal to or exceeding 30%.

1. CC(C)=CCSCC[C@H](N)C(=O)O	satisfied
2. CCCCSCC[C@H](N)C(=O)O	satisfied
3. CC(C)CSCC[C@H](N)C(=O)O	not satisfied

Next up:
Please check: Percentage Turn-Over (sMAT) for `C=C(C)CSCC[C@H](N)C(=O)O` , strictly under 30% or not?
satisfied

====

Target: Methanocaldococcus jannaschii MAT (mMAT) (Methanocaldococcus jannaschii, UniProt Q58605)
Format: biochemical
Details: 2 mM Met analog, 1 mM ATP, 5 μM MAT, pH 8, 4 h, 65° C.; average of two assays
Method: Standard uniform assay conditions (2 mM Met analog, 1 mM ATP, 5 μM MAT, 25 mM Tris, 5 mM MgCl2, 50 mM KCl, pH 8, 4 h) were adopted to facilitate this broad assessment. […] Production of SAM analogs was determined by an RP-HPLC end point assay to afford complete analysis of the desired SAM analog and/or any corresponding degradation products known to directly derive from the desired SAM analog intermediate. […]
Answer each item with its documented Percentage Turn-over mMAT.
Give bare numbers, in %.

Some molecules with known Percentage Turn-over mMAT results, for comparison:
1) CCCSCC[C@H](N)C(=O)O	21
2) CC(C)CCSCC[C@H](N)C(=O)O	1
3) CCCCSCC[C@H](N)C(=O)O	12
4) CC(C)=CCSCC[C@H](N)C(=O)O	13
5) [N-]=[N+]=NCCSCC[C@H](N)C(=O)O	29
6) C=C(C)CSCC[C@H](N)C(=O)O	6

For every record below, what is its Percentage Turn-over mMAT?
1. [N-]=[N+]=NCCCSCC[C@H](N)C(=O)O
2. C=CCSCC[C@H](N)C(=O)O
3. C/C=C/CSCC[C@H](N)C(=O)O
4. C=C/C=C/CSCC[C@H](N)C(=O)O

1. 31
2. 16
3. 30
4. 8

For every record below, what is its Percentage Turn-over mMAT?
1. C#CCSCC[C@H](N)C(=O)O
2. N#CCSCC[C@H](N)C(=O)O
3. CC(C)CSCC[C@H](N)C(=O)O
4. CCSCC[C@H](N)C(=O)O
5. [N-]=[N+]=NC/C=C/CSCC[C@H](N)C(=O)O

[6, 6, 1, 94, 32]

For every record below, what is its Percentage Turn-over mMAT?
1. C#CCCSCC[C@H](N)C(=O)O
2. CC(C)SCC[C@H](N)C(=O)O

1: 16; 2: 8

====

target: human MAT II catalytic alpha subunit alone (hMAT2A) (Homo sapiens); test: MAT assay, turnover of S/Se-Met analogs to S(Se)AM analogs (RP-HPLC end point); assay type: biochemical; conditions: 2 mM Met analog, 1 mM ATP, 5 μM MAT, pH 8, 4 h, 37° C.; average of two assays
ASSAY ENDPOINT: Percentage Turn-over hMAT2A (%)
Give bare numbers, in %.

Some compounds with known Percentage Turn-over hMAT2A results, for comparison:
1. CCCSCC[C@H](N)C(=O)O	54
2. CCCCSCC[C@H](N)C(=O)O	12
3. C=C(C)CSCC[C@H](N)C(=O)O	2
4. C/C=C/CSCC[C@H](N)C(=O)O	5
5. CCC[Se]CC[C@H](N)C(=O)O	24
6. C#CCC[Se]CC[C@H](N)C(=O)O	22
7. [N-]=[N+]=NC/C=C/CSCC[C@H](N)C(=O)O	5
8. N#CCSCC[C@H](N)C(=O)O	13
9. C#CCSCC[C@H](N)C(=O)O	6
10. CC(C)SCC[C@H](N)C(=O)O	2

For every record below, what is its Percentage Turn-over hMAT2A?
1. C=C/C=C/CSCC[C@H](N)C(=O)O
2. C=CCSCC[C@H](N)C(=O)O

[4, 50]

====

Answer each item with its documented Percentage Turn-over eMAT.
molecular target: Escherichia coli MAT (eMAT) (Escherichia coli, UniProt P0A817); assay: MAT assay, turnover of S/Se-Met analogs to S(Se)AM analogs (RP-HPLC end point); type: biochemical; conditions: 2 mM Met analog, 1 mM ATP, 5 μM MAT, pH 8, 4 h, 37° C.; average of two assays
One number for each entry, in %.

1) N#CCSCC[C@H](N)C(=O)O	2
2) CCCSCC[C@H](N)C(=O)O	2
3) CC(C)CSCC[C@H](N)C(=O)O	0

For every record below, what is its Percentage Turn-over eMAT?
1. C=C/C=C/CSCC[C@H](N)C(=O)O
2. [N-]=[N+]=NCCSCC[C@H](N)C(=O)O
3. CC(C)SCC[C@H](N)C(=O)O

1. 4
2. 0
3. 0

====

target: human MAT II catalytic alpha and regulatory beta subunit (hMAT2) (Homo sapiens); test: MAT assay, turnover of S/Se-Met analogs to S(Se)AM analogs (RP-HPLC end point); format: biochemical; conditions: 2 mM Met analog, 1 mM ATP, 5 μM MAT, pH 8, 4 h, 37° C.; average of two assays
Answer each item with its documented Percentage Turn-over hMAT2.
One number for each entry, in %.

1) CC(C)CSCC[C@H](N)C(=O)O	0
2) N#CC[Se]CC[C@H](N)C(=O)O	33
3) C#CCCSCC[C@H](N)C(=O)O	40
4) CC(C)=CCSCC[C@H](N)C(=O)O	6
5) C#CC[Se]CC[C@H](N)C(=O)O	58

For every record below, what is its Percentage Turn-over hMAT2?
1. CC(C)[Se]CC[C@H](N)C(=O)O
2. C=CC[Se]CC[C@H](N)C(=O)O

10
59

For every record below, what is its Percentage Turn-over hMAT2?
1. C#CCSCC[C@H](N)C(=O)O
2. [N-]=[N+]=NC/C=C/CSCC[C@H](N)C(=O)O
3. [N-]=[N+]=NCCCSCC[C@H](N)C(=O)O
4. CCCSCC[C@H](N)C(=O)O
5. CSCC[C@H](N)C(=O)O
6. C/C=C/CSCC[C@H](N)C(=O)O
7. CCCCSCC[C@H](N)C(=O)O

1. 20
2. 12
3. 46
4. 55
5. 100
6. 25
7. 13

For every record below, what is its Percentage Turn-over hMAT2?
1. CCSCC[C@H](N)C(=O)O
2. C=CCSCC[C@H](N)C(=O)O
3. [N-]=[N+]=NC/C=C/C[Se]CC[C@H](N)C(=O)O
4. CCC[Se]CC[C@H](N)C(=O)O
5. N#CCSCC[C@H](N)C(=O)O
6. C=C(C)CSCC[C@H](N)C(=O)O

1: 88; 2: 52; 3: 15; 4: 74; 5: 20; 6: 2

For every record below, what is its Percentage Turn-over hMAT2?
1. C[Se]CC[C@H](N)C(=O)O [2-Se, L-selenomethionine, reference compound]
2. CCCC[Se]CC[C@H](N)C(=O)O
3. C=C/C=C/CSCC[C@H](N)C(=O)O

1: 100; 2: 49; 3: 44
